- ASSAY_TEXT: clinical
- CONDITION_NOTES: human, plasma, iv, Plasma concentrations, Day 2 (printed Day −2), 01:15 Hr, individual opioid withdrawal patients, IV infusion
Counter-ions that a name gives are not always drawn.
READOUT_LABEL: concentration at […] (ng/mL)
Give just the numeric value; ng/mL need not be written.

Requested field: concentration at […]. Item: Cc1cccc([C@H](C)c2cnc[nH]2)c1C [dexmedetomidine hydrochloride]
0.14

###

- ASSAY_TEXT: clinical
- CONDITION_NOTES: human, in vivo, Plasma level concentration, Patient 14, Treatment; 30 min
Counter-ions that a name gives are not always drawn.
READOUT_LABEL: concentration at 30 min (ng/mL)
Give just the numeric value; ng/mL need not be written.

Requested field: concentration at 30 min. Item: Cc1cccc([C@H](C)c2cnc[nH]2)c1C [dexmedetomidine hydrochloride]
0.0527

###

- ASSAY_TEXT: clinical
- CONDITION_NOTES: human, in vivo, Plasma level concentration, Patient 11, Treatment; 45 min
Structures can show the parent of a compound that is named as a salt.
READOUT_LABEL: concentration at 45 min
# output: number + unit

Requested field: concentration at 45 min. Item: Cc1cccc([C@H](C)c2cnc[nH]2)c1C [dexmedetomidine hydrochloride]
0.124 ng/mL

###

- ASSAY_TEXT: clinical
- CONDITION_NOTES: human, in vivo, Plasma level concentration, Patient 4, Treatment; 90 min
Structures can show the parent of a compound that is named as a salt.
READOUT_LABEL: concentration at 90 min (ng/mL)
Give just the numeric value; ng/mL need not be written.

Requested field: concentration at 90 min. Item: Cc1cccc([C@H](C)c2cnc[nH]2)c1C [dexmedetomidine hydrochloride]
0.0443

###

- ASSAY_TEXT: clinical
- CONDITION_NOTES: human, in vivo, Plasma level concentration, Patient 14, Treatment; 45 min
Counter-ions that a name gives are not always drawn.
READOUT_LABEL: concentration at 45 min (ng/mL)
Give just the numeric value; ng/mL need not be written.

Requested field: concentration at 45 min. Item: Cc1cccc([C@H](C)c2cnc[nH]2)c1C [dexmedetomidine hydrochloride]
0.0465

###

- ASSAY_TEXT: clinical
- CONDITION_NOTES: human, plasma, iv, Plasma concentrations, Day 2 (printed Day −2), 01:30 Hr, individual opioid withdrawal patients, IV infusion
Where a name gives a salt, the structure may show the parent alone.
READOUT_LABEL: concentration at […]
# output: number + unit

Requested field: concentration at […]. Item: Cc1cccc([C@H](C)c2cnc[nH]2)c1C [dexmedetomidine hydrochloride]
0.177 ng/mL

###

- ASSAY_TEXT: clinical
- CONDITION_NOTES: human, in vivo, Plasma level concentration, Patient 12, Treatment; 75 min
Structures can show the parent of a compound that is named as a salt.
READOUT_LABEL: concentration at 75 min (ng/mL)
Give just the numeric value; ng/mL need not be written.

Requested field: concentration at 75 min. Item: Cc1cccc([C@H](C)c2cnc[nH]2)c1C [dexmedetomidine hydrochloride]
0.159

###

- ASSAY_TEXT: clinical
- CONDITION_NOTES: human, in vivo, Plasma concentrations
- Method: These samples were assayed for the concentration of the drug in those participants randomized to test product.
Where a name gives a salt, the structure may show the parent alone.
READOUT_LABEL: concentration at 0 h (ng/mL)
Give just the numeric value; ng/mL need not be written.

Requested field: concentration at 0 h. Item: Cc1cccc([C@H](C)c2cnc[nH]2)c1C [dexmedetomidine hydrochloride]
0

###

- ASSAY_TEXT: clinical
- CONDITION_NOTES: human, in vivo, Plasma level concentration, Patient 17, Treatment; 45 min
Counter-ions that a name gives are not always drawn.
READOUT_LABEL: concentration at 45 min (ng/mL)
Give just the numeric value; ng/mL need not be written.

Requested field: concentration at 45 min. Item: Cc1cccc([C@H](C)c2cnc[nH]2)c1C [dexmedetomidine hydrochloride]
0.0399

###

- ASSAY_TEXT: clinical
- CONDITION_NOTES: human, in vivo, Plasma level concentration, Patient 16, Treatment; 45 min
Counter-ions that a name gives are not always drawn.
READOUT_LABEL: concentration at 45 min (ng/mL)
Give just the numeric value; ng/mL need not be written.

Requested field: concentration at 45 min. Item: Cc1cccc([C@H](C)c2cnc[nH]2)c1C [dexmedetomidine hydrochloride]
0.0412

###

- ASSAY_TEXT: clinical
- CONDITION_NOTES: human, in vivo, Plasma level concentration, Patient 18, Treatment; 30 min
Counter-ions that a name gives are not always drawn.
READOUT_LABEL: concentration at 30 min (ng/mL)
Give just the numeric value; ng/mL need not be written.

Requested field: concentration at 30 min. Item: Cc1cccc([C@H](C)c2cnc[nH]2)c1C [dexmedetomidine hydrochloride]
0.0545

###

- ASSAY_TEXT: clinical
- CONDITION_NOTES: human, in vivo, Plasma level concentration, Patient 14, Treatment; 60 min
Structures can show the parent of a compound that is named as a salt.
READOUT_LABEL: concentration at 60 min (ng/mL)
Give just the numeric value; ng/mL need not be written.

Requested field: concentration at 60 min. Item: Cc1cccc([C@H](C)c2cnc[nH]2)c1C [dexmedetomidine hydrochloride]
0.406

###

- ASSAY_TEXT: clinical
- CONDITION_NOTES: human, plasma, iv, Plasma concentrations, Day 1 (printed Day −1), 01:30 Hr, individual opioid withdrawal patients, IV infusion
Where a name gives a salt, the structure may show the parent alone.
READOUT_LABEL: concentration at […] (ng/mL)
Give just the numeric value; ng/mL need not be written.

Requested field: concentration at […]. Item: Cc1cccc([C@H](C)c2cnc[nH]2)c1C [dexmedetomidine hydrochloride]
0.112

###

- ASSAY_TEXT: clinical
- CONDITION_NOTES: human, in vivo, Plasma level concentration, Patient 11, Treatment; 60 min
Where a name gives a salt, the structure may show the parent alone.
READOUT_LABEL: concentration at 60 min (ng/mL)
Give just the numeric value; ng/mL need not be written.

Requested field: concentration at 60 min. Item: Cc1cccc([C@H](C)c2cnc[nH]2)c1C [dexmedetomidine hydrochloride]
0.15

###

- ASSAY_TEXT: clinical
- CONDITION_NOTES: human, in vivo, Plasma level concentration, Patient 17, Treatment; 15 min
Counter-ions that a name gives are not always drawn.
READOUT_LABEL: concentration at 15 min
# output: number + unit

Requested field: concentration at 15 min. Item: Cc1cccc([C@H](C)c2cnc[nH]2)c1C [dexmedetomidine hydrochloride]
0.0159 ng/mL

###

- ASSAY_TEXT: clinical
- CONDITION_NOTES: human, in vivo, Plasma concentrations
Structures can show the parent of a compound that is named as a salt.
READOUT_LABEL: concentration at 2 h (ng/mL)
Give just the numeric value; ng/mL need not be written.

Requested field: concentration at 2 h. Item: Cc1cccc([C@H](C)c2cnc[nH]2)c1C [dexmedetomidine hydrochloride]
0.378

###

- ASSAY_TEXT: clinical
- CONDITION_NOTES: human, in vivo, Plasma level concentration, Patient 12, Treatment; 30 min
Counter-ions that a name gives are not always drawn.
READOUT_LABEL: concentration at 30 min
# output: number + unit

Requested field: concentration at 30 min. Item: Cc1cccc([C@H](C)c2cnc[nH]2)c1C [dexmedetomidine hydrochloride]
0.0449 ng/mL

###

- ASSAY_TEXT: clinical
- CONDITION_NOTES: human, in vivo, Plasma level concentration, Patient 12, Treatment; 60 min
Structures can show the parent of a compound that is named as a salt.
READOUT_LABEL: concentration at 60 min (ng/mL)
Give just the numeric value; ng/mL need not be written.

Requested field: concentration at 60 min. Item: Cc1cccc([C@H](C)c2cnc[nH]2)c1C [dexmedetomidine hydrochloride]
0.109

###

- ASSAY_TEXT: clinical
- CONDITION_NOTES: human, plasma, iv, Plasma concentrations, Day 2 (printed Day −2), 00:00 Hr, individual opioid withdrawal patients, IV infusion
Counter-ions that a name gives are not always drawn.
READOUT_LABEL: concentration at 0 h (pg/mL)
Give just the numeric value; pg/mL need not be written.

Requested field: concentration at 0 h. Item: Cc1cccc([C@H](C)c2cnc[nH]2)c1C [dexmedetomidine hydrochloride]
8.21

###

- ASSAY_TEXT: clinical
- CONDITION_NOTES: human, in vivo, Plasma level concentration, Patient 16, Treatment; 30 min
Counter-ions that a name gives are not always drawn.
READOUT_LABEL: concentration at 30 min (ng/mL)
Give just the numeric value; ng/mL need not be written.

Requested field: concentration at 30 min. Item: Cc1cccc([C@H](C)c2cnc[nH]2)c1C [dexmedetomidine hydrochloride]
0.0156

###

- ASSAY_TEXT: clinical
- CONDITION_NOTES: human, in vivo, Plasma level concentration, Patient 16, Treatment; 15 min
Where a name gives a salt, the structure may show the parent alone.
READOUT_LABEL: concentration at 15 min (pg/mL)
Give just the numeric value; pg/mL need not be written.

Requested field: concentration at 15 min. Item: Cc1cccc([C@H](C)c2cnc[nH]2)c1C [dexmedetomidine hydrochloride]
2.56
